FYI, the data here is from ChEMBL document CHEMBL1130402.

- Species: Rattus norvegicus
- TEST_PROTOCOL: Ratio of biodistribution in liver and blood in normal Wistar rats at 60 min. after injecting the compound
- Format: ADME, organism-based
- STUDY_CONDITIONS: in vivo, 1 h
ENDPOINT_NAME: ID/organ

a = O=C(O)CN(CCN(CCN(CC(=O)O)CC(=O)O)[C@H](Cc1ccccc1)C(=O)O)CC(=O)O
b = O=C(O)CN(CCN(CCN(CC(=O)O)CC(=O)O)[C@@H](Cc1ccccc1)C(=O)O)CC(=O)O
Query: Of a versus b , which is the one with smaller reported ID/organ? Reply with the label of the item you choose.
Response: b

* * *

- Species: Rattus norvegicus
- TEST_PROTOCOL: Ratio of biodistribution in kidney and blood in normal Wistar rats at 15 min after injecting the compound
- Assay type: ADME, organism-based
- STUDY_CONDITIONS: in vivo, 0.25 h
ENDPOINT_NAME: ID/organ
Lab note: jot the number down without any unit.

Query: // ID/organ lookup, key: O=C(O)CN(CCN(CCN(CC(=O)O)CC(=O)O)[C@@H](Cc1ccccc1)C(=O)O)CC(=O)O
Response: 0.48

* * *

- Species: Rattus norvegicus
- TEST_PROTOCOL: Ratio of biodistribution in kidney and blood in normal Wistar rats at 5 min after injecting the compound
- Type: ADME, organism-based
- STUDY_CONDITIONS: in vivo
ENDPOINT_NAME: ID/organ
Reply with just the number.

Query: Using the record for O=C(O)CN(CCN(CCN(CC(=O)O)CC(=O)O)[C@@H](Cc1ccccc1)C(=O)O)CC(=O)O , report its ID/organ.
Response: 0.37

* * *

- TEST_PROTOCOL: Compound was tested for % clearance through the urine in jaundiced (TR-) Wistar rats
- Assay type: ADME, organism-based
- STUDY_CONDITIONS: rat
ENDPOINT_NAME: dose excreted (%)

SMILES_RECORD	UNIT_INFO	dose excreted
O=C(O)CN(CCN(CCN(CC(=O)O)CC(=O)O)[C@H](Cc1ccccc1)C(=O)O)CC(=O)O	%	80.4
O=C(O)CN(CCN(CCN(CC(=O)O)CC(=O)O)[C@@H](Cc1ccccc1)C(=O)O)CC(=O)O	%	85

* * *

- Species: Rattus norvegicus
- TEST_PROTOCOL: Ratio of biodistribution in liver and blood in normal Wistar rats at 5 min. after injecting the compound
- Assay type: ADME, organism-based
- STUDY_CONDITIONS: in vivo
ENDPOINT_NAME: ID/organ

SMILES_RECORD	ID/organ
O=C(O)CN(CCN(CCN(CC(=O)O)CC(=O)O)[C@H](Cc1ccccc1)C(=O)O)CC(=O)O	1.46
O=C(O)CN(CCN(CCN(CC(=O)O)CC(=O)O)[C@@H](Cc1ccccc1)C(=O)O)CC(=O)O	1.04
